Data credit: PubChem BioAssay (NCI)

Entries and their TGI values follow.
# Tested on: MDA-MB-435
# method_summary: NCI tumour cell line growth inhibition, 48 h
Where a SMILES comes first, the peptide text is derived from it. [ ]: non-standard residue; d: D form. 2Nal = N[CH](Cc1ccc2ccccc2c1)C(=O)O
recorded_endpoint: TGI

compound	assay_result
COc1cc(/C=C2\C(=O)N(c3c(Cl)cccc3Cl)c3ccccc32)cc(OC)c1O	15.4 µM
Nc1ncnc2c1ncn2CC(OCP(=O)(O)O)Oc1ccccc1 (stereo unspecified)	> 100 µM
CC(NC(=O)C(N)Cc1ccccc1)C(=O)NC(Cc1ccc(O)cc1)C(=O)NC(Cc1c[nH]c2ccccc12)C(=O)NC(CCCCN)C(=O)NC(C(=O)NC(C)C(=O)NC(Cc1ccc2ccccc2c1)C(N)=O)C(C)C (stereo unspecified) (H-FAYWKVA[2Nal]-NH2; configuration not given here)	> 12.5 µM
C=CCSc1n[nH]c(-c2cccs2)n1	> 100 µM
O=[N+]([O-])c1cc(Cl)ccc1S(=O)(=O)c1ccccc1	> 100 µM
O=C(O)[C@@H]1C[C@@H](O)CN1	> 100 µM
CC(=O)OC1CC(OC2C(O)CC(OC3C(O)CC(OC4CCC5(C)C(CCC6C5CC(O)C5(C)C(C7=CC(=O)OC7)CCC65O)C4)OC3C)OC2C)OC(C)C1O (stereo unspecified) (tested in a mixture with another compound)	0.357 µM
COc1cc2cc(C(=O)O)[nH]c2cc1OCc1ccccc1	> 100 µM
NC(=O)c1c(OCc2c(F)cc(Br)cc2F)nsc1NC(=O)NCCCCN1CCCC1	6.75 µM
CN(C)CCCC1(c2ccc(F)cc2)OCc2cc(-c3ccc4cc[nH]c4c3)ccc21 (stereo unspecified)	3.23 µM
COc1cc(Cn2c3c(c4cc(O)ccc42)C(=O)c2ccccc2C3=O)cc(OC)c1	> 100 µM

====

# Test system: COLO 205 colon
# method_summary: NCI tumour cell line growth inhibition, 48 h
Overview of recorded GI50 for various compounds
recorded_endpoint: GI50

compound	recorded_endpoint	assay_result
COc1cc(/C=C2\C(=O)N(c3c(Cl)cccc3Cl)c3ccccc32)cc(OC)c1O	GI50	5.94 µM
O=C1Nc2ccccc2SC1C1SC(=S)N(Cc2ccccc2)C1=O (centres undefined)	GI50	3.38 µM
Nc1ccc(-c2ccc(-c3nc4ccccc4[nH]3)cc2)cc1	GI50	0.32 µM
O=C(NCCNCCO)c1ccc2oc3cc4ccccc4c(=O)n3c2c1	GI50	12 µM
O=C(c1cccs1)c1c(C(F)(F)F)n([O-])c2cc(F)c(F)cc2[n+]1=O	GI50	3.15 µM
CS(=O)(=O)c1ccc(C(F)(F)F)cc1NC(=O)Nc1cnc(Oc2ccc(-c3cc(Cl)cnc3N)cc2)nc1	GI50	1.98 µM
COc1ccc2[nH]cc(/C=C3\C(=O)Nc4ccccc43)c2c1	GI50	3.86 µM
CCOC(=O)c1cc(C(=O)c2cc(OC)cc(OC)c2)n2ncccc12	GI50	0.797 µM
CCOC(=O)c1c(C)c2c(n1C)CSc1cc(S(=O)(=O)c3ccccc3)c(=O)[nH]c1-2	GI50	14.3 µM
C[C@]12CC[C@H]3[C@@H](C[C@@H]4SC(Nc5cccc(F)c5)=N[C@@]45CC(=O)CC[C@]35C)[C@@H]1CCC2=O	GI50	2.16 µM
C[C@]12CC[C@@H]3c4ccc(O)cc4CC[C@H]3[C@@H]1CC[C@@H]2NS(=O)(=O)c1cccc(Br)c1	GI50	1.89 µM
CCN(C)S(=O)(=O)Nc1cccc(Nc2ncnc3cc(NC(=O)CCl)ccc23)c1Cl	GI50	2.5 µM
N#CC1=C(N)Oc2c(sc3c(F)cccc23)C1c1ccc([N+](=O)[O-])cc1 (centres undefined)	GI50	0.279 µM
N#Cc1ccc(-n2cnc(NC(=O)[C@H]3CCN(C#N)C3)c2)cc1	GI50	0.372 µM

====

# System: SNB-75 CNS
# method_summary: NCI tumour cell line growth inhibition, 48 h
Reported TGI by item:

compound	value_operator	TGI / µM
C(/COc1cccnc1)=N\NC1=NCCN1	>	100
CSC(=S)NN=C1CCCCC1	>	100
CC(C)(C)C1CCC2c3c([nH]c4ccccc34)C3C(=O)N(c4ccc(Br)cc4)C(=O)C3C2C1 (stereo unspecified)	=	54.8
Cc1cccc(NC(=O)CC2C(=O)Nc3ccccc3S2(=O)=O)c1C (stereo unspecified)	=	41.6
CCNC1CC(C(C)(C)NCC)CC=C1C (stereo unspecified)	>	100
N#Cc1ccc(-n2cnc(NC(=O)[C@H]3CCN(C#N)C3)c2)cc1	=	3.74
O=[N+]([O-])C(=C1Nc2ccccc2N1)C(Cl)=C(Cl)Cl	=	12.4
CCC12C=CCN3CC[C@]4(C(=C(C(=O)OC)[C@@H]1Nc1ccn(C5OC(COC(C)=O)C(OC(C)=O)C5OC(C)=O)c(=O)n1)Nc1ccccc14)C32 (stereo partly specified)	=	7.63
COC(=O)c1ccccc1CC1Cc2cc3c(cc2C1)CCC3	>	100
COc1cc2c(cc1OC)-c1c(cc(OC)c(OC)c1OC)C2=O	=	95.5
C=C1CC2(OC1=O)c1ccccc1CCc1ccccc12	=	15.6

====

# Test system: KM12 colon
# method_summary: NCI tumour cell line growth inhibition, 48 h
recorded_endpoint: TGI

compound	recorded_endpoint	assay_result
O=C(O)/C(O)=C1/C=C(c2ccccc2)c2ccccc21	TGI	32.4 µM
CSC(=S)NN=C1CCCCC1	TGI	> 100 µM
O=C=Nc1ccc(Cc2ccc(N=C=O)cc2)cc1 (tested in a mixture with another compound)	TGI	> 25 µg/mL
CC1CC(=O)C(C(O)CC2CC(=O)N(c3ccccc3)C(=O)C2)C(C)C1 (stereo not drawn)	TGI	> 100 µM
Cc1c(-c2ccccc2)n(C)c2cn[nH]c(=O)c12	TGI	> 100 µM
Cc1cc(NC(=O)CCc2ccc(N3C(N)=NC(N)=NC3(C)C)cc2)ccc1S(=O)(=O)F	TGI	> 63.7 µM
COc1cc(/C=C2\C(=O)N(c3c(Cl)cccc3Cl)c3ccccc32)cc(OC)c1O	TGI	2.69 µM
C=C1CC2(OC1=O)c1ccccc1CCc1ccccc12	TGI	9.4 µM
CC(C)NC(C)Cc1ccccc1 (stereo not drawn)	TGI	> 100 µM
CC(=O)Nc1ccc(/C=c2\sc3nnc(/C=C/c4ccccc4)n3c2=O)cc1	TGI	> 50 µM
CCOC(=O)c1c(C)c2c(n1C)CSc1cc(S(=O)(=O)c3ccccc3)c(=O)[nH]c1-2	TGI	> 100 µM
CCCCCN(CCCCC)C(=O)[C@@H](CCC(=O)OCc1ccccc1)NC(=O)c1cc2ccccc2[nH]1	TGI	> 100 µM
O=C(NCCNCCO)c1ccc2oc3cc4ccccc4c(=O)n3c2c1	TGI	40.4 µM
CC(=O)Oc1ccc(-c2cc3ccccc3oc2=O)cc1OC(C)=O	TGI	33.2 µM
O=C1Nc2ccccc2SC1C1SC(=S)N(Cc2ccccc2)C1=O (stereo not drawn)	TGI	1.99 µM
c1ccc(C2CC(N3CCOCC3)=Nc3ccccc3N2)cc1 (stereo not drawn)	TGI	> 100 µM
COc1cc2c(cc1OC)-c1cc3ccccc3c(=O)n1CCC2	TGI	38 µM
O=c1cccc(C#CCCCCOC2CCCO2)o1 (stereo not drawn)	TGI	> 45.8 µM
C=CCSc1n[nH]c(-c2cccs2)n1	TGI	> 100 µM
Nc1nc(=O)n(C2OC(CO)C(O)C2O)cc1F (stereo not drawn)	TGI	> 100 µM
Cc1ccc(NC2=C(Cl)C(=O)c3nc(C)ccc3C2=O)cc1	TGI	12.1 µM
N#CC1=C(N)Oc2c(sc3c(F)cccc23)C1c1ccc([N+](=O)[O-])cc1 (stereo not drawn)	TGI	1.27 µM
COc1ccc(C2=C(OC(C)=O)c3cccn3-c3ccccc3S2)cc1	TGI	> 10 µM

====

# System: ACHN renal
# method_summary: NCI tumour cell line growth inhibition, 48 h

molecule	value_operator	TGI, µM
Cc1ccc(N2C(=O)/C(=c3\s/c(=C(/N)O)c(=N)n3-c3ccccc3)SC2=S)cc1	>	100
COc1ccc(C(=O)C(C(=O)C(=O)Nc2nc3ccc(OC)cc3s2)c2ccc(OC)cc2)cc1 (stereo not given)	>	100
CCC(C)(C)NC1=C(NC(C)=O)C(=O)c2ccccc2C1=O	=	43.2
CCCNc1[nH]c(C(C)=O)c(N)c1C(=S)Nc1ccccc1	>	100
CC1CC2C3CC(F)C4=CC(=O)C=CC4(C)C3(F)C(O)CC2(C)C1(O)C(=O)CO (stereo not given)	>	100
CCCCCN(CCCCC)C(=O)[C@@H](CCC(=O)OCc1ccccc1)NC(=O)c1cc2ccccc2[nH]1	>	100
CC(C)CCNC(=O)c1ccc(CNC(=O)/C=C/c2ccc(-c3ccccc3[N+](=O)[O-])o2)cc1	>	100
CC(C)(C)SC1=CCC[C@@H](P(=O)(c2ccccc2)c2ccccc2)[C@@H]2CCC[C@@H]12	=	30.6
CC(C)(C)C1CCC2c3c([nH]c4ccccc34)C3C(=O)N(c4ccc(Br)cc4)C(=O)C3C2C1 (stereo not given)	=	35.7
CSC(=S)NN=C1CCCCC1	=	56
